PROCEDURE SUMMARY: Aqueous solubility of the compound
Type: physicochemical
CONDITIONS: water
READOUT: solubility (µg/mL)
Output spec: scalar in µg/mL, unitless text.

| COMPOUND SMILES | READOUT | EXPERIMENTAL VALUE |
| --- | --- | --- |
| C=C(c1cc(OC)c(OC)c(OC)c1)c1ccc(OC)cc1/C=C/C(=O)NO | solubility | 88.3 |
| C=C(c1ccc(OC)c(/C=C/C(=O)NO)c1)c1cc(OC)c(OC)c(OC)c1 | solubility | 69.3 |

Then this compound:
Report solubility, nothing else, for this compound: C=C(c1ccc(OC)c(O)c1)c1cc(OC)c(OC)c(OC)c1 11.6
